Entries and their inhibition
# assay-target: Pantothenate synthetase (Mycobacterium tuberculosis (strain ATCC 25618 / H37Rv)) (UniProt P9WIL5)
# Sequence (P9WIL5 whole entry, looked up): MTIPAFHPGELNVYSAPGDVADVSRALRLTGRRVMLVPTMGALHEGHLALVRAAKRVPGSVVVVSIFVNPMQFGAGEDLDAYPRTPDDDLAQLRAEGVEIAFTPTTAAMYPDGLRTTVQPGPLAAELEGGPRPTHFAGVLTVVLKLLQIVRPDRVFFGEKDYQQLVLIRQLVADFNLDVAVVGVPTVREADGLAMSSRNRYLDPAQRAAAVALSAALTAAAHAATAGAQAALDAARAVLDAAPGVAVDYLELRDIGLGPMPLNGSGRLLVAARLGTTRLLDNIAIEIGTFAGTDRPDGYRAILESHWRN
# test-method-notes: Coupled enzyme confirmation of inhibitors against recombinant Mtb PanC (AID 375);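 note: 0% = full reaction with vehicle and 100% = no enzyme background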
# experimental-context: coupled enzyme assay; at 10 µM, stronger effect = higher value
State just the number; it will be interpreted in %.

Field: example entries. Status: answers known.
- CC1Cc2ccccc2N1C(=O)COC(=O)Cn1nnc(-c2ccccc2)n1 (stereo unspecified): 13
- Cc1cc(NS(=O)(=O)c2ccc(NC(=O)COc3ccccc3C(C)C)cc2)no1: 0
- [O-][n+]1c2ccc3nonc3c2nn1-c1ccccc1Cl: 0
- COc1ccccc1-n1nnnc1SCc1ccccc1: 3
- CCCCn1c(C)c(C(=O)OCC)c2c(CN3CCOCC3)c(O)ccc21: 2

Given CCCc1cc(C(N)=O)c(NC(=O)c2ccco2)s1 , state its recorded inhibition.
0

====

# test-method-notes: viability of PTEN-null HCT116 cells – cell-based, HCT116 clonal line, CellTiter-Glo, pilot screen (AID 824);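 note: 0% = 20 µM Hyamine control and 100% = vehicle cell control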
# experimental-context: HCT116 PTEN-deleted viability, 60 h, at 10 µM, stronger effect = lower value
Results filed as inconclusive are left out.
Classify: 1 when viability is strictly less than 90%; 0 when viability is not.

Examples from the recorded data:
• COc1cccc(N2C(=O)CC(=O)NC2=O)c1 = 0
• C=C(C)c1cccc(C(C)(C)NC(=O)NC2CN3CCC2CC3)c1 (stereo not given) = 0
• O=c1cccc2n1CC1CC2CN(Cc2ccc3c(c2)OCO3)C1 (stereo not given) = 0
• CCOC(=O)N(CC)c1ccc(C(O)(C(=O)OCC)C(F)(F)F)cc1 (stereo not given) = 0

Criterion: viability strictly below 90%. Is it met by Cc1cccnc1-n1c(-c2ccco2)nc2ccccc2c1=O ?
0

Subsequent entry: O=C(CN1CC(c2ccccc2)CC1=O)NCc1ccc(F)cc1 (stereo not given)
0

Subsequent entry: COc1ccc(C2C(C(=O)N3CCC4(CC3)OCCO4)CC(=O)N2c2ccc(OC)cc2)cc1 (stereo not given)
0

Subsequent entry: C[C@H]1CCCC(=O)CCC/C=C/c2cc(O)cc(O)c2C(=O)O1
1

Subsequent entry: CN(C)C(=O)Oc1ccc(C(=O)c2ccccc2)cc1
0

Subsequent entry: COc1cc(CN2CC3CC(C2)c2cccc(=O)n2C3)cc(OC)c1OC (stereo not given)
0

Subsequent entry: Cn1c(O)c(C=Nc2ccc(Cl)cc2)c(=O)n(C)c1=O
0

Subsequent entry: COc1ccc(CN2CC3CC(C2)c2cccc(=O)n2C3)cc1OC (stereo not given)
0

Subsequent entry: CC12CN3CC(C)(CN(C1)C3c1cccnc1)C2=O (stereo not given)
0

Subsequent entry: Cc1cc(OCC(=O)OC(C)(C)C)c2c3c(c(=O)oc2c1)CCC3
1

Subsequent entry: O=C(O)C1CSC(c2cccnc2)N1 (stereo not given)
0

Subsequent entry: C[C@H]1CCC[C@@H](O)CCC/C=C/c2cc(O)cc(O)c2C(=O)O1
1

Subsequent entry: CN(C)C(=O)Oc1ccc(-c2nnco2)cc1
0

====

# test-method-notes: S. cerevisiae growth inhibition in restrictive medium, OD615, pilot screen, restrictive growth control, yeast lifespan reduction project (AID 706);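 note: modified DeaD lifespan yeast strain shifted to restrictive glucose medium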
# experimental-context: OD615, 48 h, at 10 µM, stronger effect = higher value
Entries and their growth inhibition
State just the number; it will be interpreted in %.

Field: example entries. Status: answers known.
- C[C@H]1CCCC(=O)CCC/C=C/c2cc(O)cc(O)c2C(=O)O1: -14.8
- Cc1ccnc(-n2c(C)nc3ccccc3c2=O)c1: -3.79
- O=C(c1ccc2c(c1)OCO2)N1CCC2(CC1)OCCO2: -4.21
- CC1(C)Cc2c(sc3c2C(=O)NC(c2cccnc2)N3)CO1 (configuration not stated): 11.8
- CN(C)C1(c2nnnn2-c2ccc(Cl)cc2)CCCCC1: -18.1
- O=C(CN1CCOCC1)c1ccc2cc[nH]c2c1: -1.26

Now turn to the next molecule.
Given c1ccc(C2NCc3ccccc3-n3cccc32)cc1 (configuration not stated) , state its recorded growth inhibition.
-22.7

====

# test-method-notes: H69AR cell proliferation blockers – human, duplicate replicates, primary screen (AID 580);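 note: 100% = mean luminescence of untreated wells and 0% = no signal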
# experimental-context: H69AR lung tumor cells viability, ATP luminescence, 72 h; at 10 µM; stronger effect = lower value
value-kind: viability (%)
State just the number; it will be interpreted in %.

Field: example entries. Status: answers known.
- COc1ccc(OC)c(C(O)C(C)N)c1 (stereo not drawn): 98.1
- C=CCOC(=O)COc1cc(C)cc2oc(=O)c3c(c12)CCC3: 84.4

Now turn to the next compound.
Given CC1CCN2c3nc4ccccn4c(=O)c3CC3(C(=O)N(C)C(=O)N(C)C3=O)C2C1 (stereo not drawn) , state its recorded viability.
93.5

====

# assay-target: Pantothenate synthetase (Mycobacterium tuberculosis (strain ATCC 25618 / H37Rv))
# test-method-notes: Coupled enzyme confirmation of inhibitors against recombinant Mtb PanC (AID 375);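 note: 0% = full reaction with vehicle and 100% = no enzyme background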
# experimental-context: coupled enzyme assay; at 10 µM, stronger effect = higher value
Kind request: treat 1% as inclusive, so inhibition at 1% or higher is 1, anything lower is 0.

* COc1cccc(-n2c(SCC(=O)OC(C)C)nnc2-c2cccnc2)c1 | 1
* CCN(CC)S(=O)(=O)c1ccc2oc(C(=O)N3CCOCC3)c(C)c2c1 | 0
* Cc1cccc(OCCCC(=O)O)c1 | 1
* Cc1ccccc1N1CC(c2nc3ccccc3[nH]2)CC1=O (stereo not drawn) | 0

Turning now to a further record.
Item O=c1nc(N2CCCC2)nc(Nc2ccccc2)[nH]1 with inhibition of 1% or above?
0

====

# assay-target: Pantothenate synthetase (Mycobacterium tuberculosis (strain ATCC 25618 / H37Rv))
# test-method-notes: Coupled enzyme confirmation of inhibitors against recombinant Mtb PanC (AID 375);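 note: 0% = full reaction with vehicle and 100% = no enzyme background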
# experimental-context: coupled enzyme assay; at 10 µM, stronger effect = higher value
Definition: the class of an entry is the range in lowest: < 1%; middle: ≥ 1% and < 4%; highest: ≥ 4% that contains its inhibition.

Examples from the recorded data:
* O=C(NC1CCCCCC1)c1cc(S(=O)(=O)N2CCC3(CC2)OCCO3)ccc1F | highest
* COc1ccc(-c2noc(CCCOc3ccccc3)n2)cc1OC | highest
* Cc1ccc(C(=O)CC2(O)C(=O)N(C)c3ccc(Br)cc32)c(C)c1 (configuration not stated) | lowest

Which bin, given its inhibition, does O=C(c1ccc2c(c1)[nH]c(=S)n1c3ccccc3nc21)N1CCN(c2ncccn2)CC1 occupy?
highest

Subsequent entry: COc1ccc(-n2nc3cc(C)c(N)c(Br)c3n2)cc1
lowest

Subsequent entry: O=C1NC(=O)C2(CCC(C(=O)O)C2)N1 (configuration not stated)
highest

Subsequent entry: CC(=O)N1CCC2(CC1)CC(=O)c1cc(OCC(=O)NCc3ccco3)ccc1O2
middle

Subsequent entry: CCc1ccccc1N=C1SCC(=O)N1C
lowest

Subsequent entry: COc1ccc(Nc2nc(-c3sc(N)nc3C)cs2)cc1
middle

Subsequent entry: Cc1c(NS(=O)(=O)c2ccc3c(c2)c(=O)n(C)c(=O)n3C)c(=O)n(-c2ccccc2)n1C
highest

Subsequent entry: CCCCCCc1ccc(-c2ncc(N)cn2)cc1
lowest

Subsequent entry: COc1ccc(OCC(=O)N2CCN(C(=O)COc3ccc(Br)cc3)CC2)cc1
lowest

====

Entries and their inhibition
# assay-target: Pantothenate synthetase (Mycobacterium tuberculosis (strain ATCC 25618 / H37Rv))
# test-method-notes: Coupled enzyme confirmation of inhibitors against recombinant Mtb PanC (AID 375);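 note: 0% = full reaction with vehicle and 100% = no enzyme background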
# experimental-context: coupled enzyme assay; at 10 µM, stronger effect = higher value
Calls of active or inactive are those of the source. No rule for the calls is given here.

- Cc1ccc(CCNC(=O)C2CCN(S(=O)(=O)c3cccc4nsnc34)CC2)cc1: 6% (inactive)

Entry COC(=O)C(C)Sc1nc2c(c(=O)n(C)c(=O)n2C)n1Cc1cccc(C)c1 (centres undefined) , system Pantothenate synthetase (Mycobacterium tuberculosis (strain ATCC 25618 / H37Rv)): what inhibition was measured?
2% (inactive)

Subsequent entry: COc1cc(C(=O)Nc2cccc(-c3nncn3C)c2)cc(OC)c1OC
0% (inactive)

Subsequent entry: O=C(OCC#CCSc1nnc(-c2ccncc2)o1)c1cccs1
0% (inactive)

====

# test-method-notes: growth suppression of yeast trafficking mutant, preliminary HTS, modulators of trafficking downstream of Golgi apparatus project, 1536-format plate, OD 615 nm (AID 637)
# experimental-context: yeast transport mutant growth, absorbance 615 nm, 18 h; stronger effect = higher value
Entries and their inhibition
State just the number; it will be interpreted in %.

* CN1C(=O)C(Cc2cccc3ccccc23)C(=O)N(C)C1=O | 0.98
* CC(=O)N1CC(=O)Nc2ccc(Cl)cc2C1c1ccc(F)cc1 (configuration not stated) | -3.45
* CC(NC(C)(C)C)C(=O)c1cccc(Cl)c1 (configuration not stated) | 1.67
* CC(C)OCCCNC(=O)c1c(N)n(CC2CCCO2)c2nc3ccccc3nc12 (configuration not stated) | -4.13
* Cc1ccc(CC2C(=O)N(C)C(=O)N(C)C2=O)s1 | -1.67
* CCN1CCN(c2ncnc3ccc(Br)cc23)CC1 | 5.25

Now turn to the next molecule.
Given C(#CCN1CCOCC1)COCC#Cc1ccccc1 , state its recorded inhibition.
1.11
